Overview of reported EC50 across a group of compounds:
- tested_on: human FXR (NR1H4) (Homo sapiens)
- Construct: host or cells: CHO (Chinese hamster ovary) reporter cells
- Sequence (Q96RI1 1-486): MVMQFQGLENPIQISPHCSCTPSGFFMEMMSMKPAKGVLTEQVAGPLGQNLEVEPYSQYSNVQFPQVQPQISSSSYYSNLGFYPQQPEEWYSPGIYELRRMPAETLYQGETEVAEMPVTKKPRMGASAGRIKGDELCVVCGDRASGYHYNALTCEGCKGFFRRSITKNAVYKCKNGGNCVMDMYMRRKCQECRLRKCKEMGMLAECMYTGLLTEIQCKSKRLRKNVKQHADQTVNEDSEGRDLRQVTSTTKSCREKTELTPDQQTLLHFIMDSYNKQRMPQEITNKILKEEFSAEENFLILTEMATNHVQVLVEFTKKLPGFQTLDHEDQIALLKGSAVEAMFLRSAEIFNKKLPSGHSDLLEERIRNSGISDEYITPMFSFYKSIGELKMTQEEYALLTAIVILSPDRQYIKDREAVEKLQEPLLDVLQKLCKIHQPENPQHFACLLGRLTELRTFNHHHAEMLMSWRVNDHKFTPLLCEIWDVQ
- protocol_text: Human FXR (NRIH4) Assay, luciferase reporter
- Type: cell-based
- applied_conditions: CHO reporter cells expressing human NR1H4, luciferase, 22 hours incubation

Worked cases, answers included:
>  <compound>
CC(C)Oc1cc(C(=O)O)cc2sc(NC3[C@@H]4CC[C@H]3CC(OCc3c(-c5c(Cl)cccc5Cl)noc3C3CC3)C4)nc12 (stereo partly drawn)

>  <EC50>
< 0.025 µM

$$$$
>  <compound>
COC(=O)c1ccc2nc(SC3C4CCC3CC(NCc3c(-c5ccccc5OC(F)(F)F)noc3C3CC3)C4)[nH]c2c1 (stereo not drawn)

>  <EC50>
0.025 to 0.5 µM

$$$$
>  <compound>
COC(=O)c1ccc2cc(S(=O)(=O)C3C4CCC3CC(OCc3c(-c5ccccc5OC(F)(F)F)noc3C3CC3)C4)ccc2c1 (stereo not drawn)

>  <EC50>
0.025 to 0.5 µM

$$$$

// query EC50 value for entry COC(=O)c1ccc(S(=O)(=O)NC2C3CCC2CC(OCc2c(-c4ccccc4OC(F)(F)F)noc2C2CC2)C3)c2ccccc12 (stereo not drawn) < 0.025 µM

// query EC50 value for entry CC1(S(=O)(=O)NC(=O)c2cccc3nc(NC4C5CCC4CC(OCc4c(-c6ccccc6OC(F)(F)F)noc4C4CC4)C5)cnc23)CC1 (stereo not drawn) < 0.025 µM

// query EC50 value for entry CC(C)Oc1ccc(S(=O)(=O)NC2C3CCC2CC(OCc2c(-c4ccccc4OC(F)(F)F)noc2C2CC2)C3)c2ccccc12 (stereo not drawn) 0.025 to 0.5 µM

====

- tested_on: UniProtKB Q96RI1
- protocol_text: Human FXR (NRIH4) Assay, luciferase reporter
- applied_conditions: CHO reporter cells expressing human NR1H4, luciferase, 22 hours incubation
pEC50: −log10 of the molar value.
recorded_metric: pEC50

Worked cases, answers included:
>  <compound>
O=C(O)c1cc(C2CC2)c2nc(NC3C4CCC3CC(OCc3c(-c5ccccc5OC(F)(F)F)noc3C3CC3)C4)sc2c1 (stereo not drawn)

>  <tested_on>
UniProtKB Q96RI1

>  <assay_value>
> 7.60

$$$$
>  <compound>
O=C(O)c1cc(F)c2nc(S(=O)(=O)C3C4CCC3CC(OCc3c(-c5ccccc5OC(F)(F)F)noc3C3CC3)C4)sc2c1 (stereo not drawn)

>  <tested_on>
UniProtKB Q96RI1

>  <assay_value>
6.30 to 7.60

$$$$
>  <compound>
COC(=O)c1ccc2cc(SC3C4CCC3CC(OCc3c(-c5ccccc5OC(F)(F)F)noc3C3CC3)C4)ccc2c1 (stereo not drawn)

>  <tested_on>
UniProtKB Q96RI1

>  <assay_value>
6.30 to 7.60

$$$$
>  <compound>
O=C(O)c1ccc2c(c1)CN(C1C3CCC1CC(OCc1c(-c4c(Cl)cccc4Cl)noc1C1CC1)C3)C2 (stereo not drawn) [Example 2-2]

>  <tested_on>
UniProtKB Q96RI1

>  <assay_value>
> 7.60

$$$$
>  <compound>
O=C(O)c1ccc2cc(SC3C4CCC3CC(OCc3c(-c5ccccc5OC(F)(F)F)noc3C3CC3)C4)ccc2c1 (stereo not drawn)

>  <tested_on>
UniProtKB Q96RI1

>  <assay_value>
6.30 to 7.60

$$$$

// query pEC50 value for entry FC(F)(F)Oc1ccccc1-c1noc(C2CC2)c1COC1CC2CCC(C1)C2Nc1nc2c(C3CC3)cc(-c3nnn[nH]3)cc2s1 (stereo not drawn) > 7.60

// query pEC50 value for entry O=C(O)c1ccc2nc(NC3C4CCC3CC(OCc3c(-c5ccccc5OC(F)(F)F)noc3C3CC3)C4)cnc2c1 (stereo not drawn) [Example 41] > 7.60

// query pEC50 value for entry COC(=O)c1ccc2cc(S(=O)(=O)NC3C4CCC3CC(OCc3c(-c5ccccc5OC(F)(F)F)noc3C3CC3)C4)ccc2c1 (stereo not drawn) > 7.60

// query pEC50 value for entry Fc1c(Br)cccc1CNC1C2CCC1CC(OCc1c(-c3ccccc3OC(F)(F)F)noc1C1CC1)C2 (stereo not drawn) 6.30 to 7.60

// query pEC50 value for entry FC(F)(F)Oc1ccccc1-c1noc(C2CC2)c1COC1CC2CCC(C1)C2Nc1nc2ccc(C(F)(F)F)cc2s1 (stereo not drawn) 6.30 to 7.60

// query pEC50 value for entry O=C(O)c1ccc(S(=O)(=O)NC2C3CCC2CC(OCc2c(-c4ccccc4OC(F)(F)F)noc2C2CC2)C3)c2ccccc12 (stereo not drawn) 6.30 to 7.60

// query pEC50 value for entry O=C(O)c1ccc2nc(NC3C4CCC3CC(OCc3c(-c5ccccc5OC(F)(F)F)noc3C3CC3)C4)ncc2c1 (stereo not drawn) > 7.60

====

- tested_on: human FXR (NR1H4) (Homo sapiens)
- protocol_text: Human FXR (NRIH4) Assay, luciferase reporter
- applied_conditions: CHO reporter cells expressing human NR1H4, luciferase, 22 hours incubation
recorded_metric: EC50

Worked cases, answers included:
>  <molecule>
CCOC(=O)c1cc(F)c2nc(SC3C4CCC3CC(OCc3c(-c5ccccc5OC(F)(F)F)noc3C3CC3)C4)sc2c1 (stereo not drawn)

>  <recorded_metric>
EC50

>  <assay_value>
25 to 500 nM

$$$$
>  <molecule>
NS(=O)(=O)c1ccc2nc(NC3C4CCC3CC(OCc3c(-c5ccccc5OC(F)(F)F)noc3C3CC3)C4)cnc2c1 (stereo not drawn)

>  <recorded_metric>
EC50

>  <assay_value>
25 to 500 nM

$$$$
>  <molecule>
FC(F)(F)Oc1ccccc1-c1noc(C2CC2)c1COC1CC2CCC(C1)C2Nc1nccc(-c2ccccc2)n1 (stereo not drawn)

>  <recorded_metric>
EC50

>  <assay_value>
> 500 nM

$$$$
>  <molecule>
O=C(O)c1ccc2ccc(NC3C4CCC3CC(OCc3c(-c5ccccc5OC(F)(F)F)noc3C3CC3)C4)nc2c1 (stereo not drawn)

>  <recorded_metric>
EC50

>  <assay_value>
25 to 500 nM

$$$$
>  <molecule>
CC(C)Oc1cc(C(=O)O)cc2sc(OC3C4CCC3CC(OCc3c(-c5ccccc5OC(F)(F)F)noc3C3CC3)C4)nc12 (stereo not drawn)

>  <recorded_metric>
EC50

>  <assay_value>
25 to 500 nM

$$$$
>  <molecule>
O=C(O)c1cc(F)c2nc(NC3C4CCC3CC(NCc3c(-c5ccccc5OC(F)(F)F)noc3C3CC3)C4)sc2c1 (stereo not drawn)

>  <recorded_metric>
EC50

>  <assay_value>
25 to 500 nM

$$$$
>  <molecule>
FC(F)(F)Oc1ccccc1-c1noc(C2CC2)c1COC1CC2CCC(C1)C2Nc1cnc2c(-c3nnn[nH]3)cccc2n1 (stereo not drawn)

>  <recorded_metric>
EC50

>  <assay_value>
< 25 nM

$$$$
>  <molecule>
CC(C)Oc1cc(C#N)cc2sc(NC3C4CCC3CC(OCc3c(-c5ccccc5OC(F)(F)F)noc3C3CC3)C4)nc12 (stereo not drawn)

>  <recorded_metric>
EC50

>  <assay_value>
< 25 nM

$$$$
>  <molecule>
COC(=O)c1ccc(SC2C3CCC2CC(OCc2c(-c4ccccc4OC(F)(F)F)noc2C2CC2)C3)cc1 (stereo not drawn)

>  <recorded_metric>
EC50

>  <assay_value>
25 to 500 nM

$$$$
>  <molecule>
O=S(=O)(NC1C2CCC1CC(OCc1c(-c3ccccc3OC(F)(F)F)noc1C1CC1)C2)c1cccc2ccncc12 (stereo not drawn)

>  <recorded_metric>
EC50

>  <assay_value>
< 25 nM

$$$$

// query EC50 value for entry FC(F)(F)Oc1ccccc1-c1noc(C2CC2)c1COC1CC2CCC(C1)C2Nc1ccc(-c2nnn[nH]2)cn1 (stereo not drawn) 25 to 500 nM

// query EC50 value for entry O=C(O)c1cc(C2CC2)cc2nc(NC3C4CCC3CC(OCc3c(-c5ccccc5OC(F)(F)F)noc3C3CC3)C4)cnc12 (stereo not drawn) < 25 nM

// query EC50 value for entry O=C(O)c1cccc2nc(NC3C4CCC3CC(OCc3c(-c5ccccc5OC(F)(F)F)noc3C3CC3)C4)ccc12 (stereo not drawn) < 25 nM
